Assay: Efflux ratio of apparent permeability across basolateral to apical side over apical to basolateral side in Caco2 cells
Format: ADME, cell-based
Conditions: human, Caco-2
MEASURED_PARAMETER: efflux ratio

C[C@](O)(CS(C)(=O)=O)C(=O)N[C@@H]1CC[C@@]2(S(=O)(=O)c3ccc(F)cc3)c3ccc(C(F)(C(F)(F)F)C(F)(F)F)cc3CC[C@@H]12 = 0.9
CC(C)(O)C(=O)N[C@@H]1CC[C@@]2(S(=O)(=O)c3ccc(F)cc3)c3ccc(C(F)(C(F)(F)F)C(F)(F)F)nc3CC[C@@H]12 = 0.5
C[C@@](O)(CS(C)(=O)=O)C(=O)N[C@@H]1CC[C@@]2(S(=O)(=O)c3ccc(F)cc3)c3ccc(C(F)(C(F)(F)F)C(F)(F)F)cc3CC[C@@H]12 = 0.5

1 = CC(C)(O)CC(=O)N[C@@H]1CC[C@@]2(S(=O)(=O)c3ccc(F)cc3)c3ccc(C(F)(C(F)(F)F)C(F)(F)F)nc3CC[C@@H]12
2 = N#CCCN1C(=O)CC[C@H]1C(=O)N1CC[C@@]2(S(=O)(=O)c3ccc(F)cc3)c3ccc(C(F)(C(F)(F)F)C(F)(F)F)nc3CC[C@@H]12
Would you kindly point out which of 1 and 2 has the smaller efflux ratio figure? Give the label of your selection.
1
(1: 0.5, 2: 1.7)

1 = O=C(N[C@@H]1CC[C@@]2(S(=O)(=O)c3ccc(F)cc3)c3ccc(C(F)(C(F)(F)F)C(F)(F)F)nc3CC[C@@H]12)C1CCS(=O)(=O)CC1
2 = O=C(N[C@@H]1CC[C@@]2(S(=O)(=O)c3ccc(F)cc3)c3ccc(C(F)(C(F)(F)F)C(F)(F)F)cc3CC[C@@H]12)C1CCS(=O)(=O)CC1
Pick one: 1 or 2 . Which one has the lower reported efflux ratio? Reply with the label of the item you choose.
2
